System: GluN1-Y647PSAA/GluN2A receptors
Experimental protocol: Magnesium dose-response curves (Mg2+-DRCs), whole-cell patch-clamp
Format: cell-based, rat
Settings: Y647PSAA mutant, blue light; read-out: IC50,BLUE
Attribute measured: IC50 (µM)
Please respond with the number in µM and leave the unit unwritten.

*Q* Need IC50 of `[Mg+2]` , thanks.
*A* 102

----------
Subject of test: WT GluN1/GluN2A receptors (Rattus norvegicus, UniProt P35439+Q00959)
Sequence (Q00959 23-1464, other chains not shown): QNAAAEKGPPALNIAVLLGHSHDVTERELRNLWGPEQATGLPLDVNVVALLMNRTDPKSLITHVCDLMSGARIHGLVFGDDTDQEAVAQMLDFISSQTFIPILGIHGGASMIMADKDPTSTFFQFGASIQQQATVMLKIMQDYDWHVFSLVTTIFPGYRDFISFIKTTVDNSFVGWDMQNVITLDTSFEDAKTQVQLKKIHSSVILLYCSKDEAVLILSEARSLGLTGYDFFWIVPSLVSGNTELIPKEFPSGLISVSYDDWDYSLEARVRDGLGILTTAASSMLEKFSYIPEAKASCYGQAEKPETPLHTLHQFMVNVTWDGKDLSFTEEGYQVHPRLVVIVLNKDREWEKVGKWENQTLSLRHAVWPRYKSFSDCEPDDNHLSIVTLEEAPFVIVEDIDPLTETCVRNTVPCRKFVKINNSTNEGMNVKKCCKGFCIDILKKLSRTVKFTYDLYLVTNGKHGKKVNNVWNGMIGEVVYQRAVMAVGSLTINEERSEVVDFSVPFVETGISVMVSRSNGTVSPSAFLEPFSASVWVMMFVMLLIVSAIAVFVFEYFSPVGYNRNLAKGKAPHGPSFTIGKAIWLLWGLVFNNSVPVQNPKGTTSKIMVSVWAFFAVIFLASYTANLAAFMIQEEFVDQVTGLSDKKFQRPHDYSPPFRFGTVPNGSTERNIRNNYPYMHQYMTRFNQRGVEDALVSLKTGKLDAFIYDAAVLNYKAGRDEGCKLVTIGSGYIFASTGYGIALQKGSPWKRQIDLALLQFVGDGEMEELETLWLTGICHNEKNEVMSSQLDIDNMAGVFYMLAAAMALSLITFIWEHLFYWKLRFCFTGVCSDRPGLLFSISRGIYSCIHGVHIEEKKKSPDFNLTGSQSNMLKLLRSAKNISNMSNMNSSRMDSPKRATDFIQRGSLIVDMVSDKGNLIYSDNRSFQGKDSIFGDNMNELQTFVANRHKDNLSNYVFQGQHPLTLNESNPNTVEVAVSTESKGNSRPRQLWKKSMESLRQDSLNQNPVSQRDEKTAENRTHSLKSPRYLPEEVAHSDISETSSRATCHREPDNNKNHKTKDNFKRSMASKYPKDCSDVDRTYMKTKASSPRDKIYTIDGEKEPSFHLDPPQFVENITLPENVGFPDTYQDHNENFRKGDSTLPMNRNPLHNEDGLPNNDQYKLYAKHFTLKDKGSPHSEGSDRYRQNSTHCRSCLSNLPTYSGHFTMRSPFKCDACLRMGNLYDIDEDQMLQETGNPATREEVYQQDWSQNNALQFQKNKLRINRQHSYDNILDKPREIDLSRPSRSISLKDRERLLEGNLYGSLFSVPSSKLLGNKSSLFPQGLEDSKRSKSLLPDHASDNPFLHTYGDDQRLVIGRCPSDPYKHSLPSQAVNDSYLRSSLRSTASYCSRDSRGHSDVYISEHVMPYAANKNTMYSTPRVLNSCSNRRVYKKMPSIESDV
Experimental protocol: Magnesium dose-response curves (Mg2+-DRCs), whole-cell patch-clamp
Type: cell-based
Parameters: expressed in transfected cells; host or cells: HEK-293 cells (ATCC), PEI transfection, pcDNA3-based vectors
Settings: dark, nominal Mg2+ concentrations, read-out: IC50 DARK
Attribute measured: pIC50
Please treat pIC50 as minus the base-10 logarithm of the molar concentration.

*Q* Need pIC50 of `[Mg+2]` , thanks.
*A* 4.46

----------
Subject of test: WT GluN1/GluN2A receptors (Rattus norvegicus, UniProt P35439+Q00959)
Experimental protocol: Magnesium dose-response curves (Mg2+-DRCs), whole-cell patch-clamp
Format: cell-based
Design: expressed in transfected cells; host or cells: HEK-293 cells (ATCC), PEI transfection, pcDNA3-based vectors
Settings: UV light, read-out: IC50 UV
Attribute measured: IC50 (µM)
Please respond with the number in µM and leave the unit unwritten.

*Q* Need IC50 of `[Mg+2]` , thanks.
*A* 35.8

----------
Subject of test: GluN1-P532PSAA/GluN2A receptors
Settings: read-out: EC50,DARK; PSAA-mutant, dark; 100 μM of the respective co-agonist
Method: Receptor functionality and light-sensitivity were assessed in patch-clamp recordings of lifted whole cells 24–72 hr post transfection. Positively transfected cells were visualized by GFP-fluorescence. […] The osmolarity was 270–290 mOsm. […] Currents were recorded using an Axopatch 200B amplifier and a Digidata 1550A interface (Molecular Devices), sampled at 10–20 kHz, and low-pass filtered at 2–5 kHz. […]
Attribute measured: EC50 (µM)
Please respond with the number in µM and leave the unit unwritten.

Molecule | Subject of test | Endpoint unit | Quantitative readout
N[C@@H](CCC(=O)O)C(=O)O [glutamate] | GluN1-P532PSAA/GluN2A receptors | µM | 14.6

Now consider the entry below.
*Q* Hi! What's the reported EC50 for `NCC(=O)O` on GluN1-P532PSAA/GluN2A receptors?
*A* 1.5

----------
Tested on: GluN1-F654PSAA/GluN2A receptors
Experimental protocol: Magnesium dose-response curves (Mg2+-DRCs), whole-cell patch-clamp
Type: cell-based, rat
Settings: F654PSAA mutant, dark; read-out: IC50 DARK
Attribute measured: IC50 (µM)
Please respond with the number in µM and leave the unit unwritten.

*Q* Need IC50 of `[Mg+2]` , thanks.
*A* 30

----------
The compounds listed here are annotated with their pEC50.
Subject of test: GluN1-P532PSAA/GluN2A receptors
Settings: read-out: EC50,UV; PSAA-mutant, UV light (365 nm)
Please treat pEC50 as minus the base-10 logarithm of the molar concentration.

*Q* Need pEC50 of N[C@@H](CCC(=O)O)C(=O)O [glutamate] , thanks.
*A* 4.77

*Q* Repeat for the following compound: `NCC(=O)O`
*A* 4.98

----------
Subject of test: WT GluN1/GluN2A receptors (Rattus norvegicus, UniProt P35439+Q00959)
Experimental protocol: Magnesium dose-response curves (Mg2+-DRCs), whole-cell patch-clamp
Type: cell-based
Parameters: expressed in transfected cells; host or cells: HEK-293 cells (ATCC), PEI transfection, pcDNA3-based vectors
Settings: blue light, read-out: IC50 BLUE
Attribute measured: IC50 (µM)
Please respond with the number in µM and leave the unit unwritten.

*Q* Need IC50 of [Mg+2] [Mg^2+] , thanks.
*A* 32.6
